- Tested on: OVCAR-4
- procedure-details: NCI tumour cell line growth inhibition, 48 h
Calls of active or inactive are those of the source. No stated cut-off is given here; in the data, active = GI50 up to about 1.1 µM and inactive = higher.
Pick one and only one: Yes for active, No for inactive

Some solved cases for reference:
{"compound": "O=C(c1ccccc1)c1ccc2n[se]nc2c1", "qualitative-label": "No"}
{"compound": "CCCCN(CCCC)CC(C(C)=O)C(c1ccccc1)c1c(O)c2ccccc2oc1=O (stereo unspecified)", "qualitative-label": "No"}
{"compound": "Cc1cc(Cc2cc(C)cc(C(C)(C)C)c2O)c(O)c(Cc2cc(C)cc(C(C)(C)C)c2O)c1", "qualitative-label": "No"}
{"compound": "CCCn1c(SCC)c2cc3cc4ccccc4cc3cc2c1-c1nc(F)nc(F)n1", "qualitative-label": "No"}
{"compound": "Cc1cccc2c(N)c3cccc(C(=O)NCCN(C)C)c3nc12", "qualitative-label": "Yes"}

Task: Check the results log: what was the call for Cc1cccc2nc3cccc(C(=O)NCCN(C)C)c3nc12 ?
Result: Yes

Task: Also need NC1=NN(c2ccccc2)C(=O)C1/C(=N\NC(=O)c1cc2ccccc2cc1O)C(=O)Nc1ccc(Cl)c(Cl)c1 (stereo unspecified) , thanks.
Result: No

Task: Also need O=C(CC(CC(=O)Oc1c(Br)cc(Br)cc1C(=O)O)C(=O)Oc1c(Br)cc(Br)cc1C(=O)O)Oc1c(Br)cc(Br)cc1C(=O)O , thanks.
Result: No

Task: Also need CN1CCc2c(sc3ncn(C)c(=N)c23)C1 , thanks.
Result: No

Task: Also need CC1=C(O)C(O)=C(C2=C(O)C(O)=C(C)C(=O)C2=O)C(=O)C1=O , thanks.
Result: No

Task: Also need CC1(C)CN=C(Nc2ccc(F)c(F)c2)S1 , thanks.
Result: No

Task: Also need CC(=O)c1nc2ccccc2n1CC(=O)c1ccc(Cl)cc1 , thanks.
Result: No

* * *

- Tested on: SNB-78
- procedure-details: NCI tumour cell line growth inhibition, 48 h
Calls of active or inactive are those of the source. No stated cut-off is given here; in the data, active = GI50 up to about 1.1 µM and inactive = higher.
measured-parameter: GI50

Check out these entries, answers already filled in.
{"molecule": "COc1cc(C2c3cc4c(cc3[C@@H](Nc3ccc(C(=O)O)cc3)C3COC(=O)[C@H]23)OCO4)cc(OC)c1O (stereo not given in full)", "GI50": "5.78 µM (inactive)"}
{"molecule": "O=C1/C=C(/c2ccc(O)cc2)[C@@H](OC2OC(CO)C(O)C(O)C2O)Cc2ccc(O)cc2O1.O=C1/C=C(/c2ccc(O)cc2)[C@H](O)Cc2ccc(O[C@@H]3OC(CO)C(O)C(O)C3O)cc2O1 (stereo not given in full)", "GI50": "> 100 µM (inactive)"}
{"molecule": "CC(C)(c1ccc(C=O)o1)c1ccc(C(C)(C)c2ccc(C=O)o2)o1", "GI50": "> 100 µM (inactive)"}
{"molecule": "CCOC(=O)C1S/C(=N\\c2ccc(OC)c(OC)c2)N=C1C (stereo not given)", "GI50": "48.5 µM (inactive)"}
{"molecule": "Cn1c2c(c3ccccc31)CCN(CCCCN1CCc3c(n(C)c4ccccc34)C1=O)C2", "GI50": "> 100 µM (inactive)"}
{"molecule": "O=C1C(Br)=C[C@H]2C3C=CC(Br)(C3=O)[C@@H]12 (stereo not given in full)", "GI50": "94.8 µM (inactive)"}

Task: GET /values?readout=GI50&item= C[N+](C)(C)CC1CCCC(C[N+](C)(C)C)C1=O (stereo not given)
Result: 2.39 µM (inactive)

Task: Also need CS/C(=N/C#N)NCCc1c[nH]c2ccccc12 , thanks.
Result: > 100 µM (inactive)

Task: Also need CNC(=O)SCC(N)C(=O)O (stereo not given) , thanks.
Result: > 100 µM (inactive)

Task: Also need COc1cc(/C=C(\C#N)C(=O)c2ccccc2)ccc1OCc1ccccc1 , thanks.
Result: > 100 µM (inactive)

* * *

Listed here: items and their measured GI50.
- Tested on: RXF 393
- procedure-details: NCI tumour cell line growth inhibition, 48 h
The source made the active and inactive calls. Rule as the data show it: active = GI50 up to about 1.1 µM and inactive = higher.

Check out these entries, answers already filled in.
{"compound": "COC(=O)C(C(=O)C(=O)Nc1ccc(C)cc1)c1nc2ccc([N+](=O)[O-])cc2nc1O (stereo not given)", "result": "> 100 µM (inactive)"}
{"compound": "Cc1cccc2c(N)c3cccc(C(=O)NCCN(C)C)c3nc12", "result": "0.184 µM (active)"}
{"compound": "COc1ccc(C#Cn2nnc3ccccc32)cc1", "result": "97.7 µM (inactive)"}

Task: GET /values?readout=GI50&item= O=C1CCc2cc3c(cc21)C(C(=O)O)CC3 (stereo not given)
Result: 30.8 µM (inactive)

Task: Also need CCOC(=O)C1S/C(=N\c2ccc(OC)c(OC)c2)N=C1C (stereo not given) , thanks.
Result: 29.9 µM (inactive)

Task: Also need Oc1ccc(SCc2cc(O)c(O)c(O)c2)cc1 , thanks.
Result: 89.3 µM (inactive)

Task: Also need C[N+](C)(C)CC(=O)N/N=C/c1oc(-c2cccc([N+](=O)[O-])c2)c(-c2cccc([N+](=O)[O-])c2)c1[N+](=O)[O-] , thanks.
Result: 76.9 µM (inactive)

Task: Also need O=C(CCc1cc(O)cc(O)c1)NCCCNC(=O)CCc1cc(O)cc(O)c1 , thanks.
Result: > 100 µM (inactive)

Task: Also need O=C(Nc1ccccc1F)c1c(O)nc2sccn2c1=O , thanks.
Result: > 10 µM (inactive)

Task: Also need Nc1nc(SCC(=O)c2ccccc2)nc2nc3c(c(-c4ccccc4)c12)CCCC3 , thanks.
Result: 17.7 µM (inactive)

* * *

- Tested on: CCRF-CEM
- procedure-details: NCI tumour cell line growth inhibition, 48 h
Active and inactive are the calls of the source. Cut-off read from the data, not from the text of the source: active = GI50 up to about 1.1 µM and inactive = higher.
Listed here: items and their measured GI50.

Check out these entries, answers already filled in.
{"compound": "CCOC1=NC(C(F)(F)F)(C(F)(F)F)N=C(N2CCCCC2)O1", "result": "> 100 µM (inactive)"}
{"compound": "CCOC(=O)C1=NC(c2ccccc2)(c2ccccc2)OC1=C(Cl)Cl", "result": "33.6 µM (inactive)"}
{"compound": "COc1ccccc1C1(C)SCc2nc3ccccc3n21 (stereo unspecified)", "result": "> 10 µM (inactive)"}
{"compound": "O=[N+]([O-])c1ccc2c(c1)Sc1ccccc1N2", "result": "20.7 µM (inactive)"}
{"compound": "CC(=O)NC1CCC(NC(=O)OC(C)(C)C)C(NC(=O)OC(C)(C)C)C1 (stereo unspecified)", "result": "> 100 µM (inactive)"}

Task: GET /values?readout=GI50&item= CSc1nc(NC2OC(CO)C(O)C(O)C2O)c(N)c(=O)[nH]1 (stereo unspecified)
Result: > 100 µM (inactive)

Task: Also need CCCCCCc1cc2cc(-c3cn4ccccc4n3)c(=O)oc2cc1O , thanks.
Result: 19.5 µM (inactive)

Task: Also need COc1c2c(cc3nc4ccccc4nc13)CC[C@H](NC(C)=O)c1cc(=O)c(SC)ccc1-2 , thanks.
Result: 0.532 µM (active)

* * *

Listed here: items and their measured GI50.
- Tested on: SK-MEL-2
- procedure-details: NCI tumour cell line growth inhibition, 48 h
Activity calls are given as the source filed them. Rule as the data show it: active = GI50 up to about 1.1 µM and inactive = higher.

Check out these entries, answers already filled in.
{"compound": "CC(=O)c1nc2ccccc2n1CC(=O)c1ccc(Cl)cc1", "tested-target": "SK-MEL-2", "measured-parameter": "GI50", "result": "14.7 µM (inactive)"}
{"compound": "O=C(CC(CC(=O)Oc1c(Br)cc(Br)cc1C(=O)O)C(=O)Oc1c(Br)cc(Br)cc1C(=O)O)Oc1c(Br)cc(Br)cc1C(=O)O", "tested-target": "SK-MEL-2", "measured-parameter": "GI50", "result": "39.2 µM (inactive)"}
{"compound": "O=C1NC(=O)C(F)(n2cc(F)c(=O)[nH]c2=O)C(O)N1 (stereo not given)", "tested-target": "SK-MEL-2", "measured-parameter": "GI50", "result": "> 10 µM (inactive)"}
{"compound": "O=C(c1ccccc1)c1ccc2n[se]nc2c1", "tested-target": "SK-MEL-2", "measured-parameter": "GI50", "result": "> 100 µM (inactive)"}

Now consider a different compound.
Task: GET /values?readout=GI50&item= Cc1cc(-c2[nH]c(C(=O)O)cc2I)on1
Result: > 100 µM (inactive)

* * *

- System: MDA-MB-231
- procedure-details: NCI tumour cell line growth inhibition, 48 h
The source made the active and inactive calls. No stated cut-off is given here; in the data, active = GI50 up to about 1.1 µM and inactive = higher.
Listed here: items and their measured GI50.

{"compound": "OC[C@@H](O)[C@H](O)[C@H](O)[C@@H](O)C1SCCCS1", "measured-parameter": "GI50", "result": "> 100 µM (inactive)"}
{"compound": "CCCCCCNC(=O)c1cc(NCc2cc(OC)ccc2OC)ccc1O", "measured-parameter": "GI50", "result": "18.7 µM (inactive)"}

Task: GET /values?readout=GI50&item= Cc1nc2c(O)c3c(c(O)c2nc1C)C1C=CC3CC1
Result: 3.02 µM (inactive)

Task: Also need COC(=O)C1=COC(C)C2CN3CCc4c([nH]c5cc(OC)c(OC)cc45)C3CC12 (stereo unspecified) , thanks.
Result: > 100 µM (inactive)
